Source listed as patent US20230416262A1.

System: TFEB
Assay: TFEB nuclear translocation assay
Format: cell-based
Details: Homo sapiens; HeLa wt or HeLa TRPML1 KO cells, treated for 2 hrs; ratio of nuclear to ring-region TFEB intensity
For each record, write down the corresponding EC50.

Param readout= EC50; system= TFEB; entry= COC1CCC2(CC1)CN(S(=O)(=O)c1ccc(S(=O)(=O)N(C)C)cc1)c1ccccc12 (stereo not shown) [Compound I-119] ; returns value. ≤ 2 µM

Again, but for CS(=O)(=O)c1ccc(S(=O)(=O)N2CC3(CCCC3)c3ccccc32)cc1 [Compound I-9] 2.01 to 8 µM

Again, but for O=C(OCc1ccccc1)N1CCC2(CC1)CN(S(=O)(=O)c1ccc(C(F)F)cc1)c1cc(F)ccc12 [Compound I-131] ≤ 2 µM

Again, but for O=C(OCc1ccccc1)N1CCC2(CC1)CN(S(=O)(=O)c1ccc(C(F)(F)C3CC3)cc1)c1ccccc12 [Compound I-139] ≤ 2 µM

Again, but for CN(C)S(=O)(=O)c1ccc(S(=O)(=O)N2CC3(CCN(C(=O)OCc4ccccc4)CC3)c3ccccc32)cc1 [Compound I-104] ≤ 2 µM

Again, but for CN(C)S(=O)(=O)c1ccc(S(=O)(=O)N2CC3(CCN(CC(C)(F)F)CC3)c3ccccc32)cc1 [Compound I-97] ≤ 2 µM

Again, but for Cc1cc2n(n1)C1(CCCCC1)CN2S(=O)(=O)c1ccc2c(c1)C(C)(C)CO2 [Compound I-147] ≥ 10 µM

Again, but for O=S(=O)(c1cnn(C2CCOCC2)c1)N1CC2(CCCC2)c2ccccc21 [Compound I-19] ≥ 10 µM

Again, but for CN1CCC2(C1)CN(S(=O)(=O)c1ccc(C(F)F)cc1)c1ccccc12 (stereo not shown) [Compound I-89] ≥ 10 µM

Again, but for O=S(=O)(c1ccc(C2CC2)s1)N1CC2(CCCC2)c2ccccc21 [Compound I-33] ≥ 10 µM

Again, but for O=S(=O)(c1ccc(Br)cc1)N1CC2(CCCC2)c2ccccc21 [Compound I-32] ≥ 10 µM

Again, but for Cc1ccc(CS(=O)(=O)N2CC3(CCCC3)c3ccccc32)cc1C [Compound I-14] 2.01 to 8 µM

Again, but for CN1CCC2(CC1)CN(S(=O)(=O)c1ccc(S(=O)(=O)N(C)C)cc1)c1ccccc12 [Compound I-84] ≥ 10 µM

Again, but for O=S(=O)(c1cnn(C2CCC2)c1)N1CC2(CCCC2)c2ccccc21 [Compound I-17] ≥ 10 µM

Again, but for CN(C)S(=O)(=O)c1ccc(S(=O)(=O)N2CC3(CCN(CC(F)(F)F)CC3)c3ccccc32)cc1 [Compound I-87] ≤ 2 µM

Again, but for O=S(=O)(Cc1ccccc1)N1CC2(CCCCC2)c2ccccc21 [Compound I-121] ≤ 2 µM

----------
Test system: TFEB
Test: TFEB nuclear translocation assay
Assay type: cell-based
Conditions: Homo sapiens; HeLa wt or HeLa TRPML1 KO cells, treated for 2 hrs; ratio of nuclear to ring-region TFEB intensity
pEC50: −log10 of the molar value.
For each record, write down the corresponding pEC50.

Value lookup for pEC50; key = O=S(=O)(c1ccc(OC(F)(F)F)cc1)N1CC2(CCCC2)c2ccccc21 5.10 to 5.70

Again, but for CN1Cc2cc(S(=O)(=O)N3CC4(CCCC4)c4ccccc43)ccc2OC1=O ≤ 5.00

Again, but for O=C(OCc1ccccc1)N1CCC2(CC1)CN(C(=O)Oc1ccc(C(F)F)cc1)c1ccccc12 ≤ 5.00

Again, but for CN(c1ccc(S(=O)(=O)N2CC3(CCCC3)c3ccccc32)cc1)S(C)(=O)=O ≤ 5.00

Again, but for Cc1ccc(CS(=O)(=O)N2CC3(CCCC3)c3ccccc32)cc1 ≤ 5.00

Again, but for O=S(=O)([C@H]1C[C@@H]1c1cccc(F)c1)N1CC2(CCCC2)c2ccccc21 ≤ 5.00

Again, but for CC1(C)Oc2ccc(S(=O)(=O)N3CC4(CCCC4)c4ccccc43)cc2O1 5.10 to 5.70

Again, but for O=S(=O)(c1cncc(C(F)F)c1)N1CC2(CCCC2)c2ccccc21 ≤ 5.00

Again, but for O=C(OCc1ccccc1)N1CCC2(CC1)CN(C(=O)c1ccccc1)c1ccccc12 ≤ 5.00

Again, but for O=S(=O)(c1ccc2c(c1)CCOC2)N1CC2(CCCC2)c2ccccc21 ≤ 5.00

Again, but for O=C(OCc1ccccc1)N1CCC2(CC1)CN(S(=O)(=O)c1ccc(S(=O)(=O)C(F)F)cc1)c1ccccc12 ≥ 5.70

Again, but for O=C(Nc1ccc2c(c1)CCO2)N1CCC2(CC1)CN(S(=O)(=O)c1ccc(C(F)F)cc1)c1ccccc12 ≤ 5.00

Again, but for Cc1nn2c(c1C)N(S(=O)(=O)c1ccc(S(=O)(=O)N(C)C)cc1)CC21CCCCC1 ≤ 5.00

Again, but for CN(C)S(=O)(=O)c1ccc(S(=O)(=O)N2CC3(CN(C(=O)OCc4ccccc4)C3)c3ccccc32)cc1 ≥ 5.70

Again, but for O=C(OCc1ccccc1)N1CCC2(C1)CN(S(=O)(=O)c1ccc(C(F)F)cc1)c1ccccc12 (stereo not shown) 5.10 to 5.70

Again, but for O=C(Nc1ccccc1)C1CCC2(CC1)CN(S(=O)(=O)c1ccc(C(F)F)cc1)c1ccccc12 (stereo not shown) ≥ 5.70
